Cited source: ChEMBL document CHEMBL6121002

- System: Rattus norvegicus
- ASSAY NAME: Antialzheimer activity in AlCl3-induced learning and memory impairment in Sprague-Dawley rat assessed as fold increase in norepinephrine level in brain tissue at 30 mg/kg, po measured after 5 weeks by fluorometric analysis relative to control
- Type: functional
# fold change (FC) annotations
Lab note: jot the number down without any unit.

Reference set, count: 4
O=C1c2c(sc3c2CCCCC3)OC(c2ccccc2)N1c1ccccc1 (stereo unspecified) | 2.2
O=C1c2c(sc3c2CCCCC3)OC(c2ccccc2)N1c1ccc(Cl)cc1 (stereo unspecified) | 1.7
COc1ccc(N2C(=O)c3c(sc4c3CCCCC4)OC2c2ccc(Cl)cc2)cc1 (stereo unspecified) | 2.9
O=C1c2c(sc3c2CCCCC3)OC(c2ccc(Cl)cc2)N1c1ccccc1 (stereo unspecified) | 1.7

Consider the record given below.
Which fold change (FC) is listed for COc1ccc(N2C(=O)c3c(sc4c3CCCCC4)OC2c2ccccc2)cc1 (stereo unspecified) ? 1.7

###

- System: Rattus norvegicus
- ASSAY NAME: Antialzheimer activity in AlCl3-induced learning and memory impairment in Sprague-Dawley rat assessed as fold increase in time spent in target quadrant at 30 mg/kg, po measured after 5 weeks by […] relative to control
- Assay type: functional
ATTRIBUTE MEASURED: fold change (FC)
Field format: numeric only.

Worked set:
O=C1c2c(sc3c2CCCCC3)OC(c2ccccc2)N1c1ccccc1 (stereo unspecified) | 5.3
O=C1c2c(sc3c2CCCCC3)OC(c2ccccc2)N1c1ccc(Cl)cc1 (stereo unspecified) | 5.2
COc1ccc(N2C(=O)c3c(sc4c3CCCCC4)OC2c2ccccc2)cc1 (stereo unspecified) | 5.6
O=C1c2c(sc3c2CCCCC3)OC(c2ccc(Cl)cc2)N1c1ccccc1 (stereo unspecified) | 5.4

Enter reported fold change (FC) observed with Rattus norvegicus for O=C1c2c(sc3c2CCCCC3)OC(c2ccc(Cl)cc2)N1c1ccc(Cl)cc1 (stereo unspecified) 6.5

Lookup COc1ccc(N2C(=O)c3c(sc4c3CCCCC4)OC2c2ccc(Cl)cc2)cc1 (stereo unspecified) 5.9

###

Measured IC50 (UniProt:P22303)
Sequence (P22303 whole entry): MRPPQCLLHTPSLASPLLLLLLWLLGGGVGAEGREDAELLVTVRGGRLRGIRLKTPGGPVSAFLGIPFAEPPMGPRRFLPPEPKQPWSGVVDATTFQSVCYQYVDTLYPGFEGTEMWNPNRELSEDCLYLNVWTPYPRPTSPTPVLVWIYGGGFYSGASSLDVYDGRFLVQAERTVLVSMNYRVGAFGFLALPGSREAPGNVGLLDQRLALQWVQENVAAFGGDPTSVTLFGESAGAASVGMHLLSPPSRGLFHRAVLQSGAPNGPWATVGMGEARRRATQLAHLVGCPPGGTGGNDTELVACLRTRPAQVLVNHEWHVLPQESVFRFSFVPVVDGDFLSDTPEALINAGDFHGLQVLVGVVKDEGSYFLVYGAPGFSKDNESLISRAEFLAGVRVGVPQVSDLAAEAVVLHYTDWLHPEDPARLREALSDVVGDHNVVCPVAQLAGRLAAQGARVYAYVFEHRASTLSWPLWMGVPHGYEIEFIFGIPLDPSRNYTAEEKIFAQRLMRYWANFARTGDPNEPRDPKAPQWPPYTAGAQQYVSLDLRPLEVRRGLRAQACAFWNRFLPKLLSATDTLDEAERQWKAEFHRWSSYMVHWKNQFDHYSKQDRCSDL
The reply should be a number in nM, with the unit left off.

O=C1c2c(sc3c2CCCCC3)OC(c2ccc(Cl)cc2)N1c1ccccc1 (stereo not drawn) | 550
CCOC(=O)c1c(OC(=O)c2ccccc2)sc2c1CCCCC2 | 2160
COc1ccc(N2C(=O)c3c(sc4c3CCCCC4)OC2c2ccc(Cl)cc2)cc1 (stereo not drawn) | 3140
COc1ccc(N2C(=O)c3c(sc4c3CCCCC4)OC2c2ccccc2)cc1 (stereo not drawn) | 4050

Tell me the measured IC50 of CCOC(=O)c1c(OC(=O)c2ccc(Cl)cc2)sc2c1CCCCC2 , please. 1050

Queued: O=C1c2c(sc3c2CCCCC3)OC(c2ccc(Cl)cc2)N1c1ccc(Cl)cc1 (stereo not drawn) 12600

Next compound: O=C1c2c(sc3c2CCCCC3)OC(c2ccccc2)N1c1ccccc1 (stereo not drawn) 510

Would you kindly repeat that for O=C1c2c(sc3c2CCCCC3)OC(c2ccccc2)N1c1ccc(Cl)cc1 (stereo not drawn) ? 9480

###

- TESTED ON: Cholinesterase (Homo sapiens, UniProt P06276)
- Sequence (P06276 whole entry): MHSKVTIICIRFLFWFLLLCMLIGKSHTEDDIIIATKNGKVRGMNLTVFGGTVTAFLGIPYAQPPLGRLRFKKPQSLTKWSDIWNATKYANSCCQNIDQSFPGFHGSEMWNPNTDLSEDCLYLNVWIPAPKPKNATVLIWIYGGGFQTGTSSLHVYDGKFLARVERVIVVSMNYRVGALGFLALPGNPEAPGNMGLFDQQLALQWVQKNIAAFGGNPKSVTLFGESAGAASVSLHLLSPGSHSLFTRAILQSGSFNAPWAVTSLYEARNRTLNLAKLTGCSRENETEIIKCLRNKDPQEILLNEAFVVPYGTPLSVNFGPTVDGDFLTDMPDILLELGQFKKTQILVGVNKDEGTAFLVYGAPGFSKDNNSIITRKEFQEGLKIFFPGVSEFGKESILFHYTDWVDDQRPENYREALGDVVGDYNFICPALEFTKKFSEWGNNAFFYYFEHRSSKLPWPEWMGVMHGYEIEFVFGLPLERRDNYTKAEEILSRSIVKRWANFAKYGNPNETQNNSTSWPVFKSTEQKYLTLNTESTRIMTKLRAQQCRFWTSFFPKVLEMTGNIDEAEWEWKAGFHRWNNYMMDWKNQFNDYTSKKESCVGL
ATTRIBUTE MEASURED: IC50
Answer by giving the amount and then stating its unit.

As a guide, the following entries are already answered.
O=C1c2c(sc3c2CCCCC3)OC(c2ccc(Cl)cc2)N1c1ccc(Cl)cc1 (stereo not drawn) | 308 µM
COc1ccc(N2C(=O)c3c(sc4c3CCCCC4)OC2c2ccc(Cl)cc2)cc1 (stereo not drawn) | 7.76 µM
COc1ccc(N2C(=O)c3c(sc4c3CCCCC4)OC2c2ccccc2)cc1 (stereo not drawn) | 11 µM
CCOC(=O)c1c(OC(=O)c2ccc(Cl)cc2)sc2c1CCCCC2 | 2.9 µM
O=C1c2c(sc3c2CCCCC3)OC(c2ccccc2)N1c1ccccc1 (stereo not drawn) | 2.48 µM
O=C1c2c(sc3c2CCCCC3)OC(c2ccc(Cl)cc2)N1c1ccccc1 (stereo not drawn) | 6.9 µM
CCOC(=O)c1c(OC(=O)c2ccccc2)sc2c1CCCCC2 | 7.5 µM

# IC50 lookup, item O=C1c2c(sc3c2CCCCC3)OC(c2ccccc2)N1c1ccc(Cl)cc1 (stereo not drawn) 24.7 µM

###

- Test system: Rattus norvegicus
- ASSAY NAME: Antialzheimer activity in AlCl3-induced learning and memory impairment in Sprague-Dawley rat assessed as fold decrease in AChE level in brain tissue at 30 mg/kg, po measured after 5 weeks by fluorometric analysis relative to control
- Format: functional
Overview of reported fold change (FC) across a group of compounds:
Just the number, please, no unit attached.

Below, each entry is followed by its recorded fold change (FC) result.
COc1ccc(N2C(=O)c3c(sc4c3CCCCC4)OC2c2ccccc2)cc1 (centres undefined) | 2.3
O=C1c2c(sc3c2CCCCC3)OC(c2ccccc2)N1c1ccc(Cl)cc1 (centres undefined) | 2.3
O=C1c2c(sc3c2CCCCC3)OC(c2ccc(Cl)cc2)N1c1ccccc1 (centres undefined) | 2.3

Turning now to a further record.
Given the compound O=C1c2c(sc3c2CCCCC3)OC(c2ccccc2)N1c1ccccc1 (centres undefined) , what is its reported fold change (FC)? 3.5

###

- Test system: Rattus norvegicus
- ASSAY NAME: Antialzheimer activity in AlCl3-induced learning and memory impairment in Sprague-Dawley rat assessed as reduction in escape latency time at 30 mg/kg, po measured after 5 weeks by MWM test relative to control
- Type: functional
- Design: scale not given: the % may be the effect or the level left
Activity by entry:
Give the value, in units of %, as a plain number.

The examples below pair each entry with its known result.
O=C1c2c(sc3c2CCCCC3)OC(c2ccc(Cl)cc2)N1c1ccc(Cl)cc1 (configuration not stated) | 22
O=C1c2c(sc3c2CCCCC3)OC(c2ccccc2)N1c1ccccc1 (configuration not stated) | 32
COc1ccc(N2C(=O)c3c(sc4c3CCCCC4)OC2c2ccc(Cl)cc2)cc1 (configuration not stated) | 30

Consider now this further molecule.
API: value(readout= Activity, system= Rattus norvegicus, query= COc1cc2c(cc1OC)C(=O)C(CC1CCN(Cc3ccccc3)CC1)C2 (configuration not stated) [DONEPEZIL] ) 28

###

- System: Rattus norvegicus
- ASSAY NAME: Antialzheimer activity in AlCl3-induced learning and memory impairment in Sprague-Dawley rat assessed as time taken for learning at 30 mg/kg, po measured after 5 weeks by MWM test (reference value: 53.67 +/- 1.05 sec)
- Assay type: functional
Measured Time accompanies every entry in the list below.
Kindly provide the numeric value in s only, without the unit symbol.

Give its Time value. Item: CCOC(=O)c1c(OC(=O)c2ccc(Cl)cc2)sc2c1CCCCC2 34

Subsequent entry: COc1cc2c(cc1OC)C(=O)C(CC1CCN(Cc3ccccc3)CC1)C2 (centres undefined) 14.78

###

- Test system: Rattus norvegicus
- ASSAY NAME: Antialzheimer activity in AlCl3-induced learning and memory impairment in Sprague-Dawley rat assessed as reduction in escape latency time at 30 mg/kg, po measured after 5 weeks by MWM test relative to control
- Type: functional
- Set-up: scale not given: the % may be the effect or the level left
ATTRIBUTE MEASURED: Activity

COc1ccc(N2C(=O)c3c(sc4c3CCCCC4)OC2c2ccccc2)cc1 (stereo not drawn) | <=43%
O=C1c2c(sc3c2CCCCC3)OC(c2ccc(Cl)cc2)N1c1ccccc1 (stereo not drawn) | <=46%
O=C1c2c(sc3c2CCCCC3)OC(c2ccccc2)N1c1ccc(Cl)cc1 (stereo not drawn) | <=47%

###

- Tested on: Rattus norvegicus
- ASSAY NAME: Antialzheimer activity in AlCl3-induced learning and memory impairment in Sprague-Dawley rat assessed as time taken for learning at 30 mg/kg, po measured after 5 weeks by MWM test (reference value: 53.67 +/- 1.05 sec)
- Assay type: functional
compounds and their reported Time
// return numeric value only (unit: s, not printed)

Bench note: what Time did O=C1c2c(sc3c2CCCCC3)OC(c2ccccc2)N1c1ccccc1 (configuration not stated) show? 17

And then CCOC(=O)c1c(OC(=O)c2ccccc2)sc2c1CCCCC2 , what is it? 37

Note, next up: O=C1c2c(sc3c2CCCCC3)OC(c2ccc(Cl)cc2)N1c1ccccc1 (configuration not stated) 24.67

Field entry: COc1ccc(N2C(=O)c3c(sc4c3CCCCC4)OC2c2ccc(Cl)cc2)cc1 (configuration not stated) 16.33

// same read-out, input: O=C1c2c(sc3c2CCCCC3)OC(c2ccc(Cl)cc2)N1c1ccc(Cl)cc1 (configuration not stated) 11.83

Here is the next compound: COc1ccc(N2C(=O)c3c(sc4c3CCCCC4)OC2c2ccccc2)cc1 (configuration not stated) 23

Another: O=C1c2c(sc3c2CCCCC3)OC(c2ccccc2)N1c1ccc(Cl)cc1 (configuration not stated) 25.67
